- Tested on: MOLT-4 leukemia
- experiment_summary: NCI-60 one-dose screen, 48 h (100 = growth as untreated, 0 = no growth, -100 = all killed)
- cond: 10 µM unless noted
About 83,000 compounds went through this panel and 20% of them were active in at least one assay; those are over-represented in the sample as a whole.
value_type: growth (%)

- molecule: "CN[C@]1(c2ccccc2Cl)CCCC[C@H]1NCCCN1CCN(C)CC1"
  target_entity: "MOLT-4 leukemia"
  value_type: "growth"
  measurement_units: "%"
  measured_number: 98.8
- molecule: "CCC(C)(C)[C@H](NC(=O)[C@H]1CCCCN1C)C(=O)N(C)[C@H](C[C@@H](OC(C)=O)c1nc(C(=O)N[C@@H](Cc2ccccc2)C[C@H](C)C(=O)O)cs1)C(C)C"
  target_entity: "MOLT-4 leukemia"
  value_type: "growth"
  measurement_units: "%"
  measured_number: 15.5
- molecule: "c1cc2c(c3c1CCNC3)OCO2"
  target_entity: "MOLT-4 leukemia"
  value_type: "growth"
  measurement_units: "%"
  measured_number: 100
- molecule: "c1ccc(COc2ccc3[nH]cc(CCN(Cc4ccccc4)Cc4ccccc4)c3c2)cc1"
  target_entity: "MOLT-4 leukemia"
  value_type: "growth"
  measurement_units: "%"
  measured_number: 70.7
- molecule: "Cc1cc(N(CCCl)CCCl)ccc1C=Nc1ccc(-c2csc(Cc3ccccc3)n2)cc1"
  target_entity: "MOLT-4 leukemia"
  value_type: "growth"
  measurement_units: "%"
  measured_number: 27.2
- molecule: "Cn1cc(-c2csc(-c3cn(CCN4CCOCC4)c4ccccc34)n2)c2cccnc21"
  target_entity: "MOLT-4 leukemia"
  value_type: "growth"
  measurement_units: "%"
  measured_number: 29.9
- molecule: "N#C[Se]Cc1cc(-c2ccccc2)n(-c2ccc(S(N)(=O)=O)cc2)n1"
  target_entity: "MOLT-4 leukemia"
  value_type: "growth"
  measurement_units: "%"
  measured_number: -28.4
- molecule: "C/C(=C\\c1ccn(-c2ccc(N)cc2)n1)[C@@H]1C[C@@H]2O[C@]2(C)CCC[C@H](C)[C@H](O)[C@@H](C)C(=O)C(C)(C)[C@@H](O)CC(=O)O1"
  target_entity: "MOLT-4 leukemia"
  value_type: "growth"
  measurement_units: "%"
  measured_number: 13.3
- molecule: "CC[C@H](NC(=O)[C@H]1CCCCN1C)C(=O)N(C)[C@H](C[C@@H](OC(C)=O)c1nc(C(=O)N[C@@H](Cc2ccccc2)C[C@H](C)C(=O)O)cs1)C(C)C"
  target_entity: "MOLT-4 leukemia"
  value_type: "growth"
  measurement_units: "%"
  measured_number: 10.2
- molecule: "NC(=O)CNc1ccc([As]=[As]c2ccc(NCC(N)=O)cc2)cc1 (stereo not drawn)"
  target_entity: "MOLT-4 leukemia"
  value_type: "growth"
  measurement_units: "%"
  measured_number: 58.8
- molecule: "COC1CC2c3ccccc3C1C(C)=[N+]2C (stereo not drawn)"
  target_entity: "MOLT-4 leukemia"
  value_type: "growth"
  measurement_units: "%"
  measured_number: 101
- molecule: "Cc1ccccc1NC(=NCCCN1CC1)Nc1ccccc1C"
  target_entity: "MOLT-4 leukemia"
  value_type: "growth"
  measurement_units: "%"
  measured_number: 70.8
- molecule: "COc1ccc(N(CC(=O)NCCC[Te]c2ccccc2)C(=O)CNC(=O)OC(C)(C)C)cc1"
  target_entity: "MOLT-4 leukemia"
  value_type: "growth"
  measurement_units: "%"
  measured_number: 12.1
- molecule: "C/C(=C\\c1ccn(-c2ccccc2N)n1)[C@@H]1C[C@@H]2O[C@]2(C)CCC[C@H](C)[C@H](O)[C@@H](C)C(=O)C(C)(C)[C@@H](O)CC(=O)O1"
  target_entity: "MOLT-4 leukemia"
  value_type: "growth"
  measurement_units: "%"
  measured_number: 12.4
- molecule: "O=C(CCCC1CCCCC1)OCC(Cl)(Cl)Cl"
  target_entity: "MOLT-4 leukemia"
  value_type: "growth"
  measurement_units: "%"
  measured_number: 107
- molecule: "CCC1CN1CCCCN1CC1CC (stereo not drawn)"
  target_entity: "MOLT-4 leukemia"
  value_type: "growth"
  measurement_units: "%"
  measured_number: 108
- molecule: "O=C([O][Hg][c]1ccccc1)c1ccccc1"
  target_entity: "MOLT-4 leukemia"
  value_type: "growth"
  measurement_units: "%"
  measured_number: -27.5
- molecule: "CC(=O)Oc1ccccc1C(=O)NCCC[Se]C#N"
  target_entity: "MOLT-4 leukemia"
  value_type: "growth"
  measurement_units: "%"
  measured_number: 10.7
- molecule: "O=C1NC(=O)C(=Cc2cn(C(=O)c3ccccc3)c3ccccc23)C(=O)N1"
  target_entity: "MOLT-4 leukemia"
  value_type: "growth"
  measurement_units: "%"
  measured_number: 88.3
- molecule: "COC(=O)[C@@H](C)C[C@H](Cc1ccccc1)NC(=O)c1csc(CC[C@H](C(C)C)N(C)C(=O)[C@@H](NC(=O)[C@H]2CCCCN2C)C(C)C)n1"
  target_entity: "MOLT-4 leukemia"
  value_type: "growth"
  measurement_units: "%"
  measured_number: 14.4
- molecule: "COc1ccc(/C=C\\c2cc(OC)c(OC)c(OC)c2)cc1NC(=O)/C=C/c1cc(OC)c(OC)c(OC)c1"
  target_entity: "MOLT-4 leukemia"
  value_type: "growth"
  measurement_units: "%"
  measured_number: 47.7
- molecule: "Clc1ccc(COC(Cn2ccnc2)c2ccc(Cl)cc2Cl)cc1 (stereo not drawn)"
  target_entity: "MOLT-4 leukemia"
  value_type: "growth"
  measurement_units: "%"
  measured_number: -28.4
- molecule: "CC(=O)Nc1ccc(NC(=O)c2ccc([As](O)O)cc2)cc1"
  target_entity: "MOLT-4 leukemia"
  value_type: "growth"
  measurement_units: "%"
  measured_number: 108
- molecule: "CC[C@]12C=CCN3CC[C@@]4(c5ccc(OC)cc5N(C)[C@H]4[C@@](O)(C(=O)OC)[C@@H]1OC(=O)CCCC[P+](c1ccccc1)(c1ccccc1)c1ccccc1)[C@@H]32"
  target_entity: "MOLT-4 leukemia"
  value_type: "growth"
  measurement_units: "%"
  measured_number: 5.66
- molecule: "O=C(O)c1c(Cl)n(Cc2ccc(O)cc2)c2ccc(O)cc12"
  target_entity: "MOLT-4 leukemia"
  value_type: "growth"
  measurement_units: "%"
  measured_number: 109
- molecule: "CCCCN1CCCC[C@@H]1C(=O)N[C@H](C(=O)N(C)[C@H](CCc1nc(C(=O)N[C@@H](Cc2ccccc2)C[C@H](C)C(=O)OC)cs1)C(C)C)[C@@H](C)CC"
  target_entity: "MOLT-4 leukemia"
  value_type: "growth"
  measurement_units: "%"
  measured_number: 34.7
- molecule: "CC1CN1CCCCN1CC1C (stereo not drawn)"
  target_entity: "MOLT-4 leukemia"
  value_type: "growth"
  measurement_units: "%"
  measured_number: 86.2
- molecule: "COc1ccc(/C=C\\c2cc(OC)c(OC)c(OC)c2)c(NS(=O)(=O)c2ccc(Cl)cc2)c1O"
  target_entity: "MOLT-4 leukemia"
  value_type: "growth"
  measurement_units: "%"
  measured_number: 10.1
- molecule: "Cc1c(NS(=O)(=O)c2ccccc2)ccc([N+](=O)[O-])c1Cl"
  target_entity: "MOLT-4 leukemia"
  value_type: "growth"
  measurement_units: "%"
  measured_number: 73.6
- molecule: "COc1ccc2c(c1)c(C1(O)CC(CSC#N)OC1=O)cn2C(=O)c1ccc(Cl)cc1 (stereo not drawn)"
  target_entity: "MOLT-4 leukemia"
  value_type: "growth"
  measurement_units: "%"
  measured_number: 93.2
- molecule: "CC1(C)N=C(N)N=C(N)N1c1ccc(OCCCNC(=O)Nc2ccc(S(=O)(=O)F)cc2)c(Cl)c1"
  target_entity: "MOLT-4 leukemia"
  value_type: "growth"
  measurement_units: "%"
  measured_number: 33.4
- molecule: "O=C(CCl)c1ccc([N+](=O)[O-])o1"
  target_entity: "MOLT-4 leukemia"
  value_type: "growth"
  measurement_units: "%"
  measured_number: -52.8
- molecule: "C=CC[Se]C(=O)c1ccccc1OC(C)=O"
  target_entity: "MOLT-4 leukemia"
  value_type: "growth"
  measurement_units: "%"
  measured_number: 14.7
